Molecular target: T1, human interleukin-23 receptor (IL23R) (human, UniProt Q5VWK5 24-355, limits assumed)
T1 construct: also called human IL23R
T1 sequence (looked up): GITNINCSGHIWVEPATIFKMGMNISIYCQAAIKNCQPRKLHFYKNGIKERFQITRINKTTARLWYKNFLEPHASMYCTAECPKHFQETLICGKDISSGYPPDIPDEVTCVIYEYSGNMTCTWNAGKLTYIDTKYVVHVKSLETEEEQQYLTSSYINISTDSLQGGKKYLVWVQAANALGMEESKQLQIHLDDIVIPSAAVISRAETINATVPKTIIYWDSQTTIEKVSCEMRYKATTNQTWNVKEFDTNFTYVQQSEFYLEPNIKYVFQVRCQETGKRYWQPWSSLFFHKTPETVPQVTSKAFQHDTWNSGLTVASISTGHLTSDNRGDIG
Experiment: SPR; KD of the capped scFv over KD of its uncapped counterpart
Listed below: Ratio (capped/uncapped) of KD values for each entry.
Give a plain numeric answer without units written out.

INSERT INTO results (binder, endpoint_result) VALUES
  ('Vκ2/VH5 consensus λ-capped, human IL23R specific scFv (scFv, scFv VL-linker-VH, made in E. coli; also called Vκ2VH5 capped) scFv: DIVMTQSPLSLPVTPGEPASISCQASENIYSFLAWYLQKPGQSPQLLIYSASKLAAGVPDRFSGSGSGTDFTLKISRVEAEDVGVYYCQQTNRYSNPDIYNVFGGGTKLTVLGGGGGSGGGGSGGGGSGGGGSEVQLVQSGAEVKKPGESLKISCKGSGIDFNSNYYMCWVRQMPGKGLEWMGCIYVGSHVNTYYANWAKGQVTISADKSISTAYLQWSSLKASDTAMYYCATSGSSVLYFKFWGQGTLVTVSS', 1.6);

Now, please, on to the next binder.
Entry Vκ2/VH4 consensus λ-capped, human IL23R specific scFv (scFv, scFv VL-linker-VH, made in E. coli; also called Vκ2VH4 capped) scFv: DIVMTQSPLSLPVTPGEPASISCQASENIYSFLAWYLQKPGQSPQLLIYSASKLAAGVPDRFSGSGSGTDFTLKISRVEAEDVGVYYCQQTNRYSNPDIYNVFGGGTKLTVLGGGGGSGGGGSGGGGSGGGGSQVQLQESGPGLVKPSETLSLTCTVSGIDFNSNYYMCWIRQPPGKGLEWIGCIYVGSHVNTYYANWAKGRVTISVDTSKNQFSLKLSSVTAADTAVYYCATSGSSVLYFKFWGQGTLVTVSS , Ratio (capped/uncapped) of KD reported as 0.4

Attribution: patent US20230242651A1
